Source of measurements: patent US12331106B2

Biological target: T1, hAng2 (Homo sapiens, UniProt O15123)
T1 sequence (O15123 19-496): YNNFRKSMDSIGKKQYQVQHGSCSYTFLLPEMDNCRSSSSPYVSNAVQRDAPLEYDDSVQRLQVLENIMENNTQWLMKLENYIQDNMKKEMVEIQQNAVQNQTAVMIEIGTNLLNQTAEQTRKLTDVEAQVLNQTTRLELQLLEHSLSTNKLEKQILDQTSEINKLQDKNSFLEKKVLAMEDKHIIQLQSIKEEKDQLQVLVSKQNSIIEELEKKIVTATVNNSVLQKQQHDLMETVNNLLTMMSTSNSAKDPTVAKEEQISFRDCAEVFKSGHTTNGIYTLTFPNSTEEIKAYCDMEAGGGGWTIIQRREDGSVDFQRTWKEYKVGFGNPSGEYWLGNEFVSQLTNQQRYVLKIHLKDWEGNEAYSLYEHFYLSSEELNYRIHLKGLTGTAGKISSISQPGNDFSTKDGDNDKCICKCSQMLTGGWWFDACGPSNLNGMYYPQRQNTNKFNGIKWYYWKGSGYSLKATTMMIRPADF
Assay: OCTET affinity of mouse monoclonal anti-Ang2 antibodies against hAng2
Conditions: hAng2 fixed on AR2G biosensor, 1:1 binding model
propertyLabel: Kon
In your response, put the unit directly after the numeric value.

Task: I have this molecule here, 4B9: mouse monoclonal anti-Ang2 antibody; VH SEQ ID NO: 9, VL SEQ ID NO: 11; hybridoma KCLRF-BP-00418 (antibody, V domains shown, Heavy Chain Variable Region; Light Chain Variable Region, mouse monoclonal anti-Ang2 antibody; hybridoma KCLRF-BP-00418) VH: EVQLVESGGGLVKPGGSLKLSCAASGFTFSDYYMYWVRQTPEKRLEWVATISVGGSFTYYPDSVKGRFTISRDNAKNNLYLQMSSLKSEDTAMYYCARDWGLRPWFVYWGQGTLVTVSA VL: DIVMTQSHKFMSTSVGDRVSITCKASQDVSTAVAWYQQKPGQSPKLLIYWASTRHTGVPDRFTGSGSGTDYTLTISSVQAEDLALYYCQQHYSTPPTFGSGTKLEIK , and I need its recorded Kon.
Output: 137000 M⁻¹ s⁻¹
